# System: OVCAR-5 ovarian
# Assay: NCI tumour cell line growth inhibition, 48 h
TGI for assorted molecules
Give your result in µM as a bare value.

Molecule | Numeric readout
Nc1ccccc1C#C/C=C\C#Cc1ccc(Cl)cc1Cl | 28.7
S=C(Nc1ccc(Cl)cc1)Nc1ccc(Cl)cc1 (tested in a mixture with another compound) | 9.71
c1ccc(CCN(Cc2nc3ccccc3[nH]2)Cc2nc3ccccc3[nH]2)cc1 | 71.6

Next up:
Which value of TGI has been reported for CC1C[C@]2(C)C(=S)Nc3ccccc3[C@@H]2Nc2ccccc21 (some centres undefined) in the records?
43.5

* * *

# Tested on: HT29 colon
# Assay: NCI tumour cell line growth inhibition, 48 h
TGI for assorted compounds

Form field: TGI recorded for O=C(O)c1cc2c(cn1)[nH]c1ccccc12 with HT29 colon (enter value)
> 100 µM

Form field: TGI recorded for C[C@]12CCC(=O)C(O)=C1CC[C@@H]1[C@@H]2CC[C@]2(C)C(=O)CC[C@@H]12 with HT29 colon (enter value)
> 100 µM

Form field: TGI recorded for COc1ccc(/C=C\c2cc(OC)c(OC)c(OC)c2)cc1OCC(=O)Nc1nc2ccc(C(F)(F)F)cc2s1 with HT29 colon (enter value)
> 100 µM

* * *

# Test system: 786-0 renal
# Assay: NCI tumour cell line growth inhibition, 48 h; in the data active means GI50 below about 0.43 µM; inactive means the rest
Tick one outcome: Yes (active), No (inactive)

Check out these entries, answers already filled in.
Compound | Experimental system | Discrete label
O=C(Oc1ccc(CCl)cc1)c1ccccc1 | 786-0 renal | Yes
O=C1CCC2(C=C(Br)C(=O)C(Br)=C2)O1 | 786-0 renal | No
COC(=O)/C(=C\c1c(C)[nH]c2ccccc12)S(=O)(=O)c1ccccc1 | 786-0 renal | No

Hi, sorry to bother you, what did the test record for O=C([CH-]C(=O)c1ccccc1)c1ccccc1.O=C([CH-]C(=O)c1ccccc1)c1ccccc1.[Nd+3].[OH-].[OH3+] ?
No

Hi, sorry to bother you, what did the test record for Cc1ccc2c(=O)c3cccc(CC(=O)O)c3oc2c1C ?
No

Hi, sorry to bother you, what did the test record for N.N.NC(CS)C(=O)[O-].NC(CS)C(=O)[O-].[Pt+4] (configuration not stated) ?
No

Hi, sorry to bother you, what did the test record for O=C1c2ccccc2-c2c1c1ccccc1c(=O)n2CCNCCNCCn1c2c(c3ccccc3c1=O)C(=O)c1ccccc1-2 ?
Yes

* * *

# System: HOP-62 NSCLC
# Assay: NCI tumour cell line growth inhibition, 48 h
Property measured: TGI (µM)
Give your result in µM as a bare value.

Example entries begin here.
Molecule | Readout unit | TGI
CC1(C)COC(/C=C/C2=NC(C)(C)CO2)=N1 | µM | 55.2
Nc1ccccc1C#C/C=C\C#Cc1ccc(Cl)cc1Cl | µM | 32.8
O=C(C(Br)Br)C(Br)C(Br)c1ccccc1 (stereo not given) | µM | 8.1

Which value of TGI has been reported for C=C1C(=O)C23CC1C[C@H](OC(C)=O)C2C1(C)C(OC(C)=O)C[C@H](O)C(C)(C)[C@H]1C(O)[C@@H]3OC(C)=O (stereo not given in full) in the records?
33.8

* * *

# Tested on: HOP-92 NSCLC
# Assay: NCI tumour cell line growth inhibition, 48 h
Property measured: GI50

Compound string | Experimental system | GI50
O=c1cc(-c2ccccc2)nc2n1CCN2Cc1ccccc1 | HOP-92 NSCLC | 42.8 µM
O=C1C=Cc2ccccc2/C1=C/c1[nH]c(=O)[nH]c1O | HOP-92 NSCLC | 5.75 µM
N=C(N)CCCCCCCCC(=N)N | HOP-92 NSCLC | 19.1 µM
Fc1ccc(-c2ccc(-c3nnc(-c4cc(F)c(Cl)cc4Cl)o3)o2)cc1Cl | HOP-92 NSCLC | 38.5 µM
COc1nc(C)cc2c(=O)n(-c3ccccc3)n(CCCN3CCN(c4ccc(Cl)cc4)CC3)c(=O)c12 | HOP-92 NSCLC | 10 µM

Which value of GI50 has been reported for CCOC(=O)Oc1c(OC)cc(C(=O)O[C@@H]2C[C@@H]3CN4CCc5c([nH]c6cc(OC)ccc56)[C@H]4C[C@@H]3[C@H](C(=O)OC)[C@H]2OC)cc1OC in the records?
3.64 µM

Which value of GI50 has been reported for CC[N+](CC)(CC)CCCn1c2c(c3ccccc3c1=O)C(=O)c1ccccc1-2 in the records?
17.9 µM

Which value of GI50 has been reported for COc1ccc(-c2nc(-c3cn(C)c4ncccc34)cs2)cc1 in the records?
2.02 µM

Which value of GI50 has been reported for Nc1ccccc1C#C/C=C\C#Cc1ccc(Cl)cc1Cl in the records?
17 µM

Which value of GI50 has been reported for Cc1cc2c(F)c(Oc3ncnn4cc(OC[C@@H](C)OC(=O)[C@H](C)N)c(C)c34)ccc2[nH]1 in the records?
16.6 µM

Which value of GI50 has been reported for COc1ccc2[nH]c(Cl)c(/C=C3/C(=O)N(C)c4ccccc43)c2c1 in the records?
91.3 µM

* * *

TGI for assorted molecules
# Tested on: NCI-H23 lung
# Assay: NCI tumour cell line growth inhibition, 48 h
Give your result in µM as a bare value.

Molecule | Experimental system | Property measured | Numeric readout
CC1(C)COC(/C=C/C2=NC(C)(C)CO2)=N1 | NCI-H23 lung | TGI | 58.1
C=C1C(=O)OC2CC3(CO3)C3C(O)C(O)CC3(C)CC12 (stereo not given) | NCI-H23 lung | TGI | 47.9
CCOC(=O)n1cncc1CC(NC(=O)Cc1c(C(=O)C=C(C)C)[nH]c2ccccc12)C(=O)OC (stereo not given) | NCI-H23 lung | TGI | 68.2

Next up:
Which value of TGI has been reported for O=C(NOCC1CC1)c1ccc(F)c(F)c1Nc1ccc(I)cc1Cl in the records?
23

* * *

# Test system: SF-268 CNS
# Assay: NCI tumour cell line growth inhibition, 48 h; in the data active = GI50 below about 0.43 µM; inactive = the rest
Tick one outcome: active, inactive

Check out these entries, answers already filled in.
Molecule | Discrete label
CC1=Cc2cc3[n-]c(cc4nc(cc5[n-]c(cc1n2)cc5C)C(C)=C4CCC(=O)O)c(CCC(=O)O)c3C.[Pd+2] | inactive
S=C(Nc1ccc(Cl)cc1)Nc1ccc(Cl)cc1 (tested in a mixture with another compound) | inactive
O=c1cc(-c2ccccc2)nc2n1CCN2Cc1ccccc1 | inactive
O=C(C(Br)Br)C(Br)C(Br)c1ccccc1 (configuration not stated) | inactive

Hi, sorry to bother you, what did the test record for S=C(Nc1ccc(Cl)cc1)Nc1ccc(-c2nc3ccccc3[nH]2)cc1 ?
inactive

* * *

# Test system: SF-539 CNS
# Assay: NCI tumour cell line growth inhibition, 48 h; in the data active = GI50 below about 0.43 µM; inactive = the rest
Tick one outcome: active, inactive

Check out these entries, answers already filled in.
Compound string | Discrete label
COc1ccc(-c2cn[nH]c2-c2cc(OC)c(OC)c(OC)c2)cc1N | active
Cc1ccc2c(=O)c3cccc(CC(=O)O)c3oc2c1C | inactive
O=C(Nc1ccc(Cl)cc1)c1cc2ccccc2cc1O | inactive

Hi, sorry to bother you, what did the test record for O=C(NC(=S)Nc1ccc(Cl)cc1)c1ccccc1 ?
inactive

Hi, sorry to bother you, what did the test record for O=C(Oc1ccc(CCl)cc1)c1ccccc1 ?
active

Hi, sorry to bother you, what did the test record for Cc1cc(S(=O)(=O)Nc2nnc(-c3ccccc3)c(-c3ccccc3)n2)c(SCc2ccccc2)cc1Cl ?
inactive

* * *

# Tested on: 786-0 renal
# Assay: NCI tumour cell line growth inhibition, 48 h
TGI for assorted compounds

Compound | Experimental system | TGI
C=CCOCn1ccc(=O)[nH]c1=O | 786-0 renal | > 100 µM
CCOC(=O)c1ccc(C(=O)/C(C#N)=C2\CCCN2)[nH]1 | 786-0 renal | > 100 µM
Cc1ccccc1N(C)S(=O)(=O)c1ccccc1[N+](=O)[O-] | 786-0 renal | > 100 µM
CC(NNC(=S)N1CCCCCC1)c1ccc2ccccc2n1 (configuration not stated) | 786-0 renal | 16.8 µM
COc1ccc2c3ccc4c(c3n(C)c2c1)C(=O)c1ccccc1C4=O | 786-0 renal | > 100 µM
Cc1ccc(S(=O)(=O)N2CCCCN(S(=O)(=O)c3ccc(C)cc3)Cc3ccccc3OCCOCCOc3c4cccc3Cc3cccc5c3OCCOCCOc3ccccc3CN(S(=O)(=O)c3ccc(C)cc3)CCCN(S(=O)(=O)c3ccc(C)cc3)Cc3ccccc3OCCOCCOc3c(cccc3C4)Cc3cccc(c3OCCOCCOc3ccccc3C2)C5)cc1 | 786-0 renal | > 100 µM

Which value of TGI has been reported for C[Si](C)(C)OC1c2[nH]c3ccccc3c2CN2C(=O)CCC12 (configuration not stated) in the records?
> 100 µM

Which value of TGI has been reported for CCOC(=O)Oc1c(OC)cc(C(=O)O[C@@H]2C[C@@H]3CN4CCc5c([nH]c6cc(OC)ccc56)[C@H]4C[C@@H]3[C@H](C(=O)OC)[C@H]2OC)cc1OC in the records?
25.3 µM

Which value of TGI has been reported for CC1(C)N=C(N)N=C(N)N1c1cc(Cl)ccc1Cl in the records?
> 100 µM

Which value of TGI has been reported for Cn1c(=O)c2[nH]c(CS(=O)(=O)Cc3nc4c([nH]3)c(=O)n(C)c(=O)n4C)nc2n(C)c1=O in the records?
> 100 µM

# credit: PubChem BioAssay (NCI)
